Measured melting point of individual entries

[
  {
    "MOLECULE": "Oc1ccc(Oc2cc3ccc(Cl)cc3cn2)cc1",
    "melting point": "190 °C"
  },
  {
    "MOLECULE": "COc1cc2c(cc1[N+](=O)[O-])-c1c(-c3cccs3)c3c(n1CC2)C(=O)N(C(C)(C)C)CC3",
    "melting point": "226 to 227 °C"
  },
  {
    "MOLECULE": "COc1c(C=Cc2ccc(C=CC3=C(C#N)C(=C(C#N)C#N)OC3(c3ccccc3)C(F)(F)F)s2)cc2c3c1CCCN3CCC2 (stereo not drawn)",
    "melting point": "156 to 160 °C"
  },
  {
    "MOLECULE": "CCN(CC)C(C)CN(c1c(C)cccc1C)S(C)(=O)=O (stereo not drawn)",
    "melting point": "58 to 60 °C"
  },
  {
    "MOLECULE": "Cc1cc(C(=O)O)c(C)c2c1SCCC2(C)C",
    "melting point": "166 to 167 °C"
  },
  {
    "MOLECULE": "CCCc1cc(Cl)nc(-c2cccc(Oc3ccccc3Cl)n2)n1",
    "melting point": "96.5 °C"
  },
  {
    "MOLECULE": "CN(C)c1cccc(Oc2ccccc2N2CCN(CCCc3c[nH]c4ccccc34)CC2)c1",
    "melting point": "156 to 162 °C"
  },
  {
    "MOLECULE": "Cc1cccc(N(c2ccccc2)c2ccc3c(c2)C(CCCO)(CCCO)c2cc(N(c4ccccc4)c4cccc(C)c4)ccc2-3)c1",
    "melting point": "216 to 217 °C"
  },
  {
    "MOLECULE": "CC(C)(C)OC(=O)NC1CCN(C2CCN(Cc3ccccc3)CC2)C1 (stereo not drawn)",
    "melting point": "118 °C"
  },
  {
    "MOLECULE": "CC1C(=O)N(c2ccccc2)c2ccccc21 (stereo not drawn)",
    "melting point": "77 to 78 °C"
  },
  {
    "MOLECULE": "Cc1cn(C(C)(C)C(=O)N(C)C)nc1-c1cccs1",
    "melting point": "116 to 119 °C"
  },
  {
    "MOLECULE": "COc1cc(Nc2nccc(-c3cccc(NC(=O)c4cccnc4)c3)n2)cc(OC)c1OC",
    "melting point": "140 to 143 °C"
  },
  {
    "MOLECULE": "CCCc1c(O)ccc2c(=O)cc(/C=C/C(=O)OCC)oc12",
    "melting point": "203 to 204 °C"
  },
  {
    "MOLECULE": "Cc1nc2c3c(ccn2c1C)[C@@](C)(O)[C@H](O)[C@@H](c1ccccc1)N3",
    "melting point": "137 to 138 °C"
  },
  {
    "MOLECULE": "COc1cc(OC)nc(NC(=O)NS(=O)(=O)c2ccccc2-c2cnoc2)n1",
    "melting point": "175 to 178 °C"
  },
  {
    "MOLECULE": "Cn1nc(-c2c(F)cccc2F)nc1-c1ccc(OCc2ccc(OC(F)(F)F)cc2)c(Cl)c1",
    "melting point": "132 to 136 °C"
  },
  {
    "MOLECULE": "O=C(Nc1ccc(S(=O)(=O)N2CCOCC2)cc1)c1cc(N2CCOCC2)ccc1[N+](=O)[O-]",
    "melting point": "252 °C"
  },
  {
    "MOLECULE": "CCn1c(C)c(C2(N(c3ccccc3)c3ccccc3C(=O)OC)OC(=O)c3ccccc32)c2ccccc21 (stereo not drawn)",
    "melting point": "80 to 115 °C"
  }
]
